system: mitochondrial electron transport chain (mETC); test: FACTORIAL assay: similarity of TFAP to the consensus (invariant) mETC TFAP; type: cell-based, human; conditions: 24 h
Counter-ions that a name gives are not always drawn.
Measured property: Pearson correlation with the mETC TFAP, r
Returns: the value as a bare number; no unit string appended.

Look over these answered cases.
Compound: Cc1ccc(-c2cc(C(F)(F)F)nn2-c2ccc(S(N)(=O)=O)cc2)cc1 [Celecoxib, reference compound]
Observed value: 0.883
//
Compound: CN(C)CCCN1c2ccccc2CCc2ccc(Cl)cc21 [Clomipramine hydrochloride, reference compound]
Observed value: 0.806
//
Compound: NC(=O)N/N=C/c1ccc([N+](=O)[O-])o1 [Nitrofurazone, reference compound]
Observed value: 0.856
//
Compound: CC/C(=C(/CC)c1ccc(O)cc1)c1ccc(O)cc1 [Diethylstilbestrol, reference compound]
Observed value: 0.812

# ---- query compound ----
Return reported Pearson correlation with the mETC TFAP, r; argument: Nc1c2c(nc3ccccc13)CCCC2 [Tacrine, reference compound] 0.810
